target.system: binding partner (antigen) of C5A (XPA23)
experiment: Biacore, K-off, fold vs original
// fold difference in affinity vs original lookup, one value per entry

Request: For the binder shown here, C5A (XPA23) VH S54I (antibody, V domains shown) VH: EVQLLESGGGLVQPGGSLRLSCAASGFTFSKYFMFWVRQAPGKGLEWVSVISPIGGMTRYADSVKGRFTISRDNSKNTLYLQMNSLRAEDTAVYYCARVGYGGNSDYWGQGTLVTVSS VL: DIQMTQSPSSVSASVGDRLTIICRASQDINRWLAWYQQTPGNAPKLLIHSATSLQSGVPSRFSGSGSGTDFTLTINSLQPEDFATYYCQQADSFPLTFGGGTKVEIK , give the reported fold difference in affinity vs original.
Response: 0.86 fold

Request: Param item: C5A (XPA23) VH Y107L (antibody, V domains shown) VH: EVQLLESGGGLVQPGGSLRLSCAASGFTFSKYFMFWVRQAPGKGLEWVSVISPSGGMTRYADSVKGRFTISRDNSKNTLYLQMNSLRAEDTAVYYCARVGYGGNSDLWGQGTLVTVSS VL: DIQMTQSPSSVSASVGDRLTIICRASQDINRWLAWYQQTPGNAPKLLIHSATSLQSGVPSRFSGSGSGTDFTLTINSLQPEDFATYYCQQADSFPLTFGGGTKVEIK
Response: 0.86 fold

More entries:
Request: For the binder shown here, C5A (XPA23) VH T58G (antibody, V domains shown) VH: EVQLLESGGGLVQPGGSLRLSCAASGFTFSKYFMFWVRQAPGKGLEWVSVISPSGGMGRYADSVKGRFTISRDNSKNTLYLQMNSLRAEDTAVYYCARVGYGGNSDYWGQGTLVTVSS VL: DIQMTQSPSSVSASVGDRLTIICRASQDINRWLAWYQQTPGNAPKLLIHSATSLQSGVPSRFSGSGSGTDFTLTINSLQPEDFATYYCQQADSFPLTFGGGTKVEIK , give the reported fold difference in affinity vs original.
Response: 0.95 fold
